test system: MDA-MB-231; assay: kynurenine production, fold change vs DMSO IFNg/TNF control; higher = more kynurenine produced (less inhibition); conditions: pre-treatment time: 18 h then 24 h IFNg/TNF
measured metric: kynurenine production
Lab note: record the figure alone, no unit after it.

Sample records with kynurenine production:
Entry C[C@@H]1O[C@@H](O[C@H]2[C@H](OC(=O)[C@]34CCC(C)(C)C[C@H]3C3=CC[C@@H]5[C@@]6(C)C[C@H](O)[C@H](O[C@@H]7O[C@H](CO)[C@@H](O)[C@H](O)[C@H]7O)C(CO)(CO)[C@@H]6CC[C@@]5(C)[C@]3(C)C[C@H]4O)OC[C@H](O)[C@@H]2O)[C@H](O)[C@H](O)[C@H]1O[C@@H]1OC[C@@H](O)[C@H](O[C@@H]2OC[C@](O)(CO)[C@H]2O)[C@H]1O [Platycodin D] (compound dose: 10 uM) has what kynurenine production?
0.354

Given C=C(CCC=C(C)C)[C@H]1CC[C@]2(C)[C@@H]1[C@H](O)C[C@@H]1[C@@]3(C)CC[C@H](O)C(C)(C)[C@@H]3[C@@H](O[C@@H]3O[C@H](CO)[C@@H](O)[C@H](O)[C@H]3O)C[C@]12C [Ginsenoside Rk3] (compound dose: 10 uM) , state its recorded kynurenine production.
0.81

Requested read-out: kynurenine production. Entry: C=C1[C@H](OC(C)=O)[C@@H](O)[C@@H](OC(=O)c2cccnc2)C(C)(C)/C=C/[C@H](C)[C@H](OC(C)=O)[C@@]2(O)C[C@@](C)(OC(C)=O)[C@H](OC(=O)c3ccccc3)[C@@H]2[C@H]1OC(C)=O [Jatrophane 5] (compound dose: 10 uM)
0.905

# lookup: kynurenine production of CC(=O)O[C@H]1C(=O)[C@@]2(C)[C@H]([C@H](OC(=O)c3ccccc3)[C@]3(O)C[C@H](OC(=O)[C@H](O)[C@@H](NC(=O)c4ccccc4)c4ccccc4)C(C)=C1C3(C)C)[C@]1(OC(C)=O)CO[C@@H]1C[C@@H]2O [7-epi-Taxol] (compound dose: 10 uM)
0.3

Form field: reported kynurenine production of C=C1CCC[C@]2(C)CC[C@@H](C(C)(C)O)C[C@@H]12 [Beta-Eudesmol] (compound dose: 10 uM)
0.904

Which measured kynurenine production value corresponds to C[C@@H]1CC[C@]2(C(=O)O[C@@H]3O[C@H](CO)[C@@H](O)[C@H](O)[C@H]3O)CC[C@]3(C)C(=CC[C@@H]4[C@@]5(C)CC[C@H](O)[C@@](C)(CO)[C@@H]5CC[C@]43C)[C@@H]2[C@]1(C)O [Pedunculoside] (compound dose: 10 uM) ?
1

Query (molecule): COC(=O)C1=CO[C@@H](O[C@@H]2O[C@H](CO)[C@@H](O)[C@H](O)[C@H]2O)[C@H]2[C@@H]1[C@H](O)C[C@]2(C)O [Shanzhiside methyl ester] (compound dose: 10 uM) ; field requested: kynurenine production
0.998

Returns the measured kynurenine production for the input molecule. Input: C=C1C[C@@]23CC[C@H]4[C@@](C)(CCC[C@@]4(C)C(=O)O)[C@@H]2CC[C@@H]1C3 [Kaurenoic acid] (compound dose: 10 uM)
0.878

Fill blank: measured kynurenine production of the molecule C=C[C@@](C)(/C=C/c1ccc(O)cc1)CCC=C(C)C [Bakuchiol] (compound dose: 10 uM) is ____.
0.736

Fill in: kynurenine production of CC(C)c1ccc2c(c1)CC[C@H]1[C@](C)(C(=O)O)CCC[C@]21C [Dehydroabietic acid] (compound dose: 10 uM) is ___
0.713

Continuing:
Suppose we examine the molecule COC(=O)c1cccnc1 [Methyl nicotinate] (compound dose: 10 uM) ; what kynurenine production value has been reported?
0.874

Entry COc1ccc2cc1Oc1ccc(cc1)C[C@H]1c3cc(c(OC)cc3CCN1C)Oc1c(OC)c(OC)cc3c1[C@H](C2)N(C)CC3 [Tetrandrine] (compound dose: 10 uM) : reported kynurenine production = ?
1.11

Look at this molecule and give its reported kynurenine production. CCCCC/C=C/C=C/C(=O)O[C@H]1C(C)=C[C@]23C(=O)[C@@H](C=C(CO)[C@@H](O)[C@]12O)[C@H]1[C@@H](C[C@H]3C)C1(C)C [3-O-(2'E,4'EDecadienoyl)ingenol] (compound dose: 10 uM)
0.812

# lookup: kynurenine production of COc1ccc(-c2coc3cc(O)ccc3c2=O)cc1 [Formononetin] (compound dose: 10 uM)
0.873

For the molecule C[C@H](CC[C@@H](OC[C@@H]1O[C@H](OC[C@H]2O[C@@H](O)[C@H](O)[C@@H](O)[C@@H]2O)[C@@H](O)[C@H](O)[C@H]1O)C(C)(C)O)[C@H]1CC[C@@]2(C)[C@@H]3CC=C4[C@@H](CC[C@H](O)C4(C)C)[C@]3(C)[C@H](O)C[C@]12C [Mogroside IIA1] (compound dose: 10 uM) , what kynurenine production is on record?
1.07

Reported kynurenine production, molecule C[C@H]1[C@H](C)CC[C@]2(C(=O)O)CC[C@]3(C)C(=CC[C@@H]4[C@@]5(C)CCC(=O)C(C)(C)[C@@H]5CC[C@]43C)[C@H]12 [Ursonic acid] (compound dose: 10 uM) : ____
0.733

What value of kynurenine production has been reported for the following molecule? CC(C)(O)CCC(=O)[C@](C)(O)C1[C@H](O)C[C@@]2(C)[C@@H]3CC=C4[C@@H](C[C@H](O)[C@@H](O)C4(C)C)[C@]3(C)C(=O)C[C@]12C (stereo partly drawn) [Cucurbitacin IIb] (compound dose: 10 uM)
0.826

For COc1c2cc3c(c1OC)CCN(C)[C@@H]3Cc1ccc(cc1)Oc1cc3c(c(OC)c1OC)CCN(C)[C@@H]3Cc1ccc(cc1)O2 [Cycleanine] (compound dose: 10 uM) , what is its reported kynurenine production?
0.198
